molecular target: human Programmed Death-1 (PD-1) expressed on the cell surface (human, UniProt Q15116 25-288); assay: cell-based or functional assay; further: test concentration or dose not given here
Sequence (Q15116 25-288): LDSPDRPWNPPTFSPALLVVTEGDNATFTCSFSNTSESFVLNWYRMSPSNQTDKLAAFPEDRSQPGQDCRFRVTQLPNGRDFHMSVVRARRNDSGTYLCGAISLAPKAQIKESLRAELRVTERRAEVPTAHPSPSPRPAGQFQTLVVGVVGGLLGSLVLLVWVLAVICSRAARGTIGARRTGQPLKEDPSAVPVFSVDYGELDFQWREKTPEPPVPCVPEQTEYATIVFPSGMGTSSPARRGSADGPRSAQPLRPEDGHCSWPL
I'd appreciate it if you could supply CD4 IFNγ % positive values for the items below.
One number for each entry, in % positive.

{"Binder": "100388_D4VH3_100389_D4VK5 (antibody, V domains shown, Mouse variable regions; cloned into pFUSE-CHIg-mG1 (murine IgG1 Fc), expressed in HEK293) VH: EVQLQESGAELVRPGASVTLSCKASGYTFTDYEMHWVKQTPVHGLEWIGVIDPGTGGTAYNQKFKVKALLTADKSSNTAYMELRSLTSEDSAVYYCTSEKFGSNYYFDYWGQGTTLTVSS VL: DIVITQTPLSLPVSLGDQASISCRSSQTIVHSDGNTYLEWYLQKPGQSPKLLIYKVSNRFSGVPDRFSGSGSGTDFTLKISRVEAEDLGVYYCFQGSHVPLTFGAGTKLEIK", "Value Units": "% positive", "Reported": 21.2}
{"Binder": "100244_C8VH3_100245_C8VK5 (antibody, V domains shown, Mouse variable regions; cloned into pFUSE-CHIg-mG1 (murine IgG1 Fc), expressed in HEK293) VH: EVQLQESGPELVRPGASVKMSCKASGYTFTSYWMHWVKQRPGQGLEWIGMIDPSNSETSLNQKFKDKATLNVDKSTNTAYMQLSSLTSEDSAVYYCARSRGNYAYEMDYWGQGTSVTVSS VL: DIVITQTTAIMSASPGEKVTLTCSASSSVSSNYLYWYQQRPGSSPKLWIYSTSNLASGVPARFSGSGSGTSYSLTISSMEAEDAASYFCHQWSSYPPTFGSGTKLEIK", "Value Units": "% positive", "Reported": 9.64}
{"Binder": "100246_A10VH1_100247_A10VK3 (antibody, V domains shown, Mouse variable regions; cloned into pFUSE-CHIg-mG1 (murine IgG1 Fc), expressed in HEK293) VH: EVQLQESGPGLVKPSQSLSLTCTVTGYSITSDYAWNWIRQFPGNKLEWMGYITYSGSPTYNPSLKSQFSITRDTSKNQFFLQLNSLTTEDTATYYCARGLGGHYFDYWGQGTTLTVSS VL: DIVLTQSPDTLSVTPGDRVSLSCRASQSISDYLHWYQQKSHESPRLLIKYASQSISGIPSRFSGSGSGSDFTLSINSVEPEDVGVYYCQNGHSYPYTFGGGTKLELK", "Value Units": "% positive", "Reported": 20.3}

100413_E1VH9_100414_E1VK5 (antibody, V domains shown, Mouse variable regions; cloned into pFUSE-CHIg-mG1 (murine IgG1 Fc), expressed in HEK293) VH: EVQLQESGPSLVQPSQSLSITCTVSGFSLTSYGVHWVRQSPGKGLEWLGVIWRGGNTDYNAAFMSRLSITKDNSKSQVFFKMNSLQADDTAIYYCAASMIGGYWGQGTTLTVSS VL: DIVLTQTPLSLPVSLGDQASISCRSSQSIVHSNGNTYLEWYLQKPGQSPKLLIYKVSNRFSGVPDRFSGSGSGTNFTLKISRVEAEDLGVYYCFQGSHVPLTFGAGTKLELK yielded CD4 IFNγ % positive of 20.2
